- target: recombinant SARS-CoV-2 RBD with C-terminal AviTag (SARS-CoV-2, UniProt P0DTC2 319-541)
Could you mark each record Y if its IC50 falls strictly under 6 nM, and N if it equals or exceeds it?

Is IC50 of MBP-5HVZ-R5A-E5-H6 (VHH, not shown: large carriers; small tags and cut ends) VHH: QVQLVESGGGLVQPGGSLRLSCAASGYDFDILRMAWFRQAPGKEREMVAAITSAESVNYEDSVKGRFTISRDNAKNTVYLQMNSLKPEDTAVYYCATYDYTDDYGYASWGQGTQVTVSS strictly below 6 nM?
N

Is IC50 of MBP-5HVZ-R5A-A1-H6 (VHH, not shown: large carriers; small tags and cut ends) VHH: QVQLVESGGGLVQPGGSLRLSCAASGAELSYTAIHWFRQAPGKQREFVATINSGGSSYYADSVKGRFTISRDNAKNTVYLQMNSLKPEDTAVYYCTALLDSTYDYWGQGTQVTVSS strictly below 6 nM?
Y

Is IC50 of MBP-5HVZ-R5A-D4-H6 (VHH, not shown: large carriers; small tags and cut ends) VHH: QVQLVESGGGLVQPGGSLRLSCAASGSAMMINRTHWFRQAPGKEREGVAGITWQGSTYYADSVKGRFTISRDNAKNTVYLQMNSLKPEDTAVYYCNAVAPVHENENYWGQGTQVTVSS strictly below 6 nM?
Y

Is IC50 of MBP-5HVZ-R2E-F4-H6 (VHH, not shown: large carriers; small tags and cut ends) VHH: QVQLVESGGGLVQPGGSLRLSCAASGETFSSNAMHWFRQAPGKGREFVAAITSGGNDNYSDSVKGRFTISRDNAKNTVYLQMNSLKPEDTAVYYCNAPATEDTSHYPRNYWGQGTQVTVSS strictly below 6 nM?
N

Is IC50 of MBP-5HVZ-R5A-B3-H6 (VHH, not shown: large carriers; small tags and cut ends) VHH: QVQLVESGGGLVQPGGSLRLSCAASGQLDRSNAMAWFRQAPGKGREWVASITSGASTQYADSVKGRFTISRDNAKNTVYLQMNSLKPEDTAVYYCAADRYRAIQRTQYSWGQGTQVTVSS strictly below 6 nM?
N

Is IC50 of MBP-5HVZ-R5A-D6-H6 (VHH, not shown: large carriers; small tags and cut ends) VHH: QVQLVESGGGLVQPGGSLRLSCAASGNDWYINSAHWYRQAPGKEREFVASVSRGGSNNYRDSVKGRFTISRDNAKNTVYLQMNSLKPEDTAVYYCAALLETSSGDYTYWGQGTQVTVSS strictly below 6 nM?
N

Is IC50 of R5A-C5 (competition ELISA sample) (VHH) VHH: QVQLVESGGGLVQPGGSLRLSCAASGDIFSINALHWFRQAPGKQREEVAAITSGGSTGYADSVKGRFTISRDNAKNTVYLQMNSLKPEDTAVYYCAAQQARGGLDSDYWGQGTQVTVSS strictly below 6 nM?
Y

Is IC50 of MBP-5HVZ-R5A-A5-H6 (VHH, not shown: large carriers; small tags and cut ends) VHH: QVQLVESGGGLVQPGGSLRLSCAASGSAFATNGLHWFRQAPGKQREFVAGITSNGSINYKDSVKGRFTISRDNAKNTVYLQMNSLKPEDTAVYYCTALLMSYGGGEEYDYWGQGTQVTVSS strictly below 6 nM?
Y
